Target: Human recombinant sphingosine-1-phosphate receptor 2 (Homo sapiens, UniProt O95136)
Assay: competitive binding assay using [^125I]34 as radioligand
Conditions: S1PR2, radioligand [^125I]34; read-out: [^125I]34 competition assay IC50

>  <compound>
COc1ccc(NC(=O)Cn2c(=O)c3ccccc3n(CC(=O)Nc3cc(I)c(OC)cc3OC)c2=O)cc1 [Compound 34]

>  <experimental system>
Human recombinant sphingosine-1-phosphate receptor 2 (Homo sapiens, UniProt O95136)

>  <IC50>
4.4 nM

$$$$

---

Biological target: S1PR2 (Homo sapiens, UniProt O95136)
Construct: purchased
Sequence (O95136 whole entry): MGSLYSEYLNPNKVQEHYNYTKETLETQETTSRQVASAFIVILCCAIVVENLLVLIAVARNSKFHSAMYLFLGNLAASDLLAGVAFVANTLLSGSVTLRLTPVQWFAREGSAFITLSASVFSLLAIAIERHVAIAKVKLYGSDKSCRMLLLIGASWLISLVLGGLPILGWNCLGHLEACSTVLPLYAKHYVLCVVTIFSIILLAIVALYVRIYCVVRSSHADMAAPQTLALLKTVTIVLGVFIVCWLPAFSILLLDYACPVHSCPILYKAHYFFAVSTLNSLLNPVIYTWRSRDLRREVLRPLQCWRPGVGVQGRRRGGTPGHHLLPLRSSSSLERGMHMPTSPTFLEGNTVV
Assay: competitive [^32P]S1P binding assay on cell membranes, S1PR2
Conditions: Table 5; read-out: IC50 S1PR2
pIC50: −log10 of the molar value.

>  <compound>
COc1ccccc1NC(=O)Cn1c(=O)c2ccccc2n(CC(=O)Nc2cc(Cl)ccc2OC)c1=O [TZ62-008]

>  <experimental system>
S1PR2 (Homo sapiens, UniProt O95136)

>  <readout relation>
=

>  <pIC50>
7.26

$$$$
>  <compound>
CNC(=O)c1ccc(Sc2cc(NC(=O)N3CCC(O)(CC(C)C)CC3)cc(C(F)(F)F)c2)cc1 [TZ51-121]

>  <experimental system>
S1PR2 (Homo sapiens, UniProt O95136)

>  <readout relation>
=

>  <pIC50>
6.38

$$$$
>  <compound>
O=C(O)Cn1c(=O)c2ccccc2n(CC(=O)Nc2cc(Cl)nc(Cl)c2)c1=O [TZ62-092]

>  <experimental system>
S1PR2 (Homo sapiens, UniProt O95136)

>  <readout relation>
<

>  <pIC50>
6.00

$$$$
>  <compound>
CCC(CC)CC1(O)CCN(C(=O)Nc2cc(C(=O)c3ccc(C(=O)NC)cc3)cc(C(F)(F)F)c2)CC1 [TZ59-089]

>  <experimental system>
S1PR2 (Homo sapiens, UniProt O95136)

>  <readout relation>
<

>  <pIC50>
6.00

$$$$
>  <compound>
CNC(=O)c1ccc(Oc2cc(NC(=O)N3CC(O)(CC(C)C)C3)cc(C(F)(F)F)c2)cc1 [TZ51-097]

>  <experimental system>
S1PR2 (Homo sapiens, UniProt O95136)

>  <readout relation>
<

>  <pIC50>
6.00

$$$$
>  <compound>
CCC(CC)CC1(O)CCN(C(=O)Nc2cc(Oc3ccc(S(C)(=O)=O)cc3)cc(C(F)(F)F)c2)CC1 [TZ51-033]

>  <experimental system>
S1PR2 (Homo sapiens, UniProt O95136)

>  <readout relation>
=

>  <pIC50>
6.53

$$$$
>  <compound>
CC(C)CC1(O)CN(C(=O)Nc2cc(Oc3ccc(F)cc3)cc(Oc3ccc(S(C)(=O)=O)cc3)c2)C1 [TZ57-119]

>  <experimental system>
S1PR2 (Homo sapiens, UniProt O95136)

>  <readout relation>
<

>  <pIC50>
6.00

$$$$
>  <compound>
CCC1(O)CCN(C(=O)Nc2cc(Oc3ccc(C(=O)NC)cc3)cc(C(F)(F)F)c2)CC1 [TZ51-046]

>  <experimental system>
S1PR2 (Homo sapiens, UniProt O95136)

>  <readout relation>
<

>  <pIC50>
6.00

$$$$
>  <compound>
CC(C)CC1(O)CCN(C(=O)Nc2cc(Oc3ccc(S(C)(=O)=O)cc3)cc(Oc3ccc(F)nc3)c2)CC1 [TZ57-040]

>  <experimental system>
S1PR2 (Homo sapiens, UniProt O95136)

>  <readout relation>
=

>  <pIC50>
6.68

$$$$
>  <compound>
COc1cc(OC)c(NC(=O)CN2C(=O)N(CC(=O)O)Cc3ccccc32)cc1Cl [TZ62-017]

>  <experimental system>
S1PR2 (Homo sapiens, UniProt O95136)

>  <readout relation>
<

>  <pIC50>
6.00

$$$$
>  <compound>
COc1cc(OC)c(NC(=O)Cn2c(=O)n(CC(=O)NCCOCCO)c(=O)c3ccccc32)cc1Cl [TZ59-132]

>  <experimental system>
S1PR2 (Homo sapiens, UniProt O95136)

>  <readout relation>
=

>  <pIC50>
7.04

$$$$
>  <compound>
COc1cc(OC)c(NC(=O)Cn2c(=O)n(Cc3ccccc3)c(=O)c3ccccc32)cc1Cl [TZ62-077]

>  <experimental system>
S1PR2 (Homo sapiens, UniProt O95136)

>  <readout relation>
<

>  <pIC50>
6.00

$$$$
>  <compound>
COc1cc(OC)c(NC(=O)Cn2c(=O)n(CC(=O)Nc3ccc(OCCF)cc3)c(=O)c3ccccc32)cc1Cl [TZ65-049]

>  <experimental system>
S1PR2 (Homo sapiens, UniProt O95136)

>  <readout relation>
=

>  <pIC50>
8.00

$$$$
>  <compound>
CNC(=O)c1ccc(Oc2cc(NC(=O)N3CC(N4CCN(C)CC4)C3)cc(C(F)(F)F)c2)cc1 [TZ51-112]

>  <experimental system>
S1PR2 (Homo sapiens, UniProt O95136)

>  <readout relation>
<

>  <pIC50>
6.00

$$$$
>  <compound>
COc1cc(OC)c(NC(=O)Cn2c(=O)n(CCO)c(=O)c3ccccc32)cc1Cl [TZ62-082]

>  <experimental system>
S1PR2 (Homo sapiens, UniProt O95136)

>  <readout relation>
<

>  <pIC50>
6.00

$$$$
>  <compound>
CCC(CC)CC1(O)CCN(C(=O)Nc2cc(Oc3ccc(F)cc3)cc(Oc3ccc4c(c3)CCN(C)C4=O)c2)CC1 [TZ57-089]

>  <experimental system>
S1PR2 (Homo sapiens, UniProt O95136)

>  <readout relation>
=

>  <pIC50>
7.14

$$$$

---

Biological target: S1PR1 (Homo sapiens, UniProt P21453)
Construct: purchased
Sequence (P21453 whole entry): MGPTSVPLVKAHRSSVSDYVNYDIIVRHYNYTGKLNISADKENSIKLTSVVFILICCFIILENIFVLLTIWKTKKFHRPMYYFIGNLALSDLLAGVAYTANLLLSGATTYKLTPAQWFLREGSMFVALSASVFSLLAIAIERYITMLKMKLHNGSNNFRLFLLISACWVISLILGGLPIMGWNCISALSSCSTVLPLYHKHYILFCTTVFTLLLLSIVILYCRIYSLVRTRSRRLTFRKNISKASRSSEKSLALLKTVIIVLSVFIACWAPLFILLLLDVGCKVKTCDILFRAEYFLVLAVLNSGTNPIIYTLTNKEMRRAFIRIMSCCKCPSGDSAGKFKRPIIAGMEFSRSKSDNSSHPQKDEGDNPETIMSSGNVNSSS
Experiment: competitive [^32P]S1P binding assay on cell membranes, S1PR1
Details: [^32P]S1P competition, Table 2
readout: IC50

>  <compound>
Cc1nn(C)c2nc(NNC(=O)Nc3cc(Cl)nc(Cl)c3)cc(C(C)C)c12 [JTE-013, reference compound]

>  <experimental system>
S1PR1 (Homo sapiens, UniProt P21453)

>  <endpoint value>
> 1000 nM

$$$$

---

Target: S1PR2 (Homo sapiens)
Construct: purchased
Assay: competitive [^32P]S1P binding assay on cell membranes, S1PR2
Conditions: [^32P]S1P competition, Table 2; read-out: IC50 S1PR2
pIC50: −log10 of the molar value.
# Lookup of reported pIC50 keyed by entry

>  <compound>
CCC(CC)CC1(O)CCN(C(=O)Nc2cc(Oc3ccc(F)cc3)cc(Oc3ccc(C(=O)NCCF)cc3)c2)CC1 [Compound 28d]

>  <pIC50>
7.18

$$$$
>  <compound>
CC(C)CC1(O)CCN(C(=O)Nc2cc(Oc3ccc(F)cc3)cc(Sc3ccc(S(C)(=O)=O)cc3)c2)CC1 [Compound 28g]

>  <pIC50>
7.41

$$$$

---

Reported pIC50 by item:
Biological target: S1PR2 (Homo sapiens)
Construct: purchased
Test: competitive [^32P]S1P binding assay on cell membranes, S1PR2
Conditions: [^32P]S1P competition, IC50 ± SD, second Table 1; read-out: S2PR2 IC50
pIC50: −log10 of the molar value.

>  <molecule>
CCC(CC)CC1(O)CCN(C(=O)Nc2cc(Oc3ccc(F)cc3)cc(N3CCN(C)CC3)c2)CC1 [Compound 17a]

>  <pIC50>
< 6.00

$$$$
>  <molecule>
CNC(=O)c1ccc(Oc2cc(NC(=O)N3CCC(O)(CC(C)C)CC3)cc(C(F)(F)F)c2)cc1 [Compound 25g]

>  <pIC50>
6.44

$$$$
>  <molecule>
CCC(CC)CC1(O)CCN(C(=O)Nc2cc(Oc3ccc(C(=O)NC)cc3)cc(C(F)(F)F)c2)CC1 [Compound 21c]

>  <pIC50>
6.56

$$$$
>  <molecule>
CCC1(O)CCN(C(=O)Nc2cc(Oc3ccc(S(C)(=O)=O)cc3)cc(C(F)(F)F)c2)CC1 [Compound 25d]

>  <pIC50>
< 6.00

$$$$
>  <molecule>
CCC(CC)CC1(O)CCN(C(=O)Nc2cc(Oc3ccc(F)cc3)cc(C(F)(F)F)c2)CC1 [Compound 17c]

>  <pIC50>
6.44

$$$$
>  <molecule>
CC(C)C1(O)CCN(C(=O)Nc2cc(Oc3ccc(S(C)(=O)=O)cc3)cc(C(F)(F)F)c2)CC1 [Compound 25f]

>  <pIC50>
< 6.00

$$$$
>  <molecule>
CCC(CC)CC1(O)CCN(C(=O)Nc2cc(OCCCF)cc(Oc3ccc(F)cc3)c2)CC1 [Compound 11b]

>  <pIC50>
< 6.00

$$$$
>  <molecule>
CNC(=O)c1ccc(Oc2cc(NC(=O)N3CCC(C)(O)CC3)cc(C(F)(F)F)c2)cc1 [Compound 25a]

>  <pIC50>
< 6.00

$$$$
